- system name: CDK9/CycT1 (Homo sapiens)
- Construct: Recombinant full-length His-tagged human CDK9 and CycT1; His; purchased Invitrogen PV4131; host or cells: insect cells
- Sequence (P50750 whole entry): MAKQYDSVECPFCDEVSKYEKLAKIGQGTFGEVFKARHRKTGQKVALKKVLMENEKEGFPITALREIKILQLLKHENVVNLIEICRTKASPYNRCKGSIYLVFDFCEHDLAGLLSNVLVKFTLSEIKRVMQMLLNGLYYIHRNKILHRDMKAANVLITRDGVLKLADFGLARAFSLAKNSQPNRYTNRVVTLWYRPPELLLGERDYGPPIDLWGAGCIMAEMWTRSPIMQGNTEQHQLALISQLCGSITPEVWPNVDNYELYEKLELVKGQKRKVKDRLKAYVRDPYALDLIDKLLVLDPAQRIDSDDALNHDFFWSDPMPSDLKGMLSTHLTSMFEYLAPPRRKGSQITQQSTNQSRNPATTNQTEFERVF
- Sequence (O60563 whole entry partner): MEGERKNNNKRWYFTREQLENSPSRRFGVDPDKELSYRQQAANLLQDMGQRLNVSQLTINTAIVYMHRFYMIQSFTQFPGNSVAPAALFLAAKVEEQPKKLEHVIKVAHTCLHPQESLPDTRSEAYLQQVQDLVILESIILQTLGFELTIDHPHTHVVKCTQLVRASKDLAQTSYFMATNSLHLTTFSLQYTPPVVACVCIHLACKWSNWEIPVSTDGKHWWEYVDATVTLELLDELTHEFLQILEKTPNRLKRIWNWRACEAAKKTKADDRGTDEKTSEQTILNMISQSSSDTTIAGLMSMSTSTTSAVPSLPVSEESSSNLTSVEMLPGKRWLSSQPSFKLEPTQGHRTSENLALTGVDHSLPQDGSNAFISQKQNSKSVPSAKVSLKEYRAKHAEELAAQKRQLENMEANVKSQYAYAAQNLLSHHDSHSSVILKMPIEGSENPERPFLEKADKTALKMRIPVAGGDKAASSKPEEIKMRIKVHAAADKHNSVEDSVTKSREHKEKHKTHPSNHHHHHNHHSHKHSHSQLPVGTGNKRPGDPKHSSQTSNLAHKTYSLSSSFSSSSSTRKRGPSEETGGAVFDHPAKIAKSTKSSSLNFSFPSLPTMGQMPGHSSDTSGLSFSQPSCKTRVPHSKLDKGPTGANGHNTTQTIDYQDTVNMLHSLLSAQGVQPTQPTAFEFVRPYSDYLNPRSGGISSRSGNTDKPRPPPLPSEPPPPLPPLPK
- test name: CDK9/CycT1 kinase assay (TR-FRET, Method 1a)
- Format: biochemical
- test context: Method 1a, 10 μM ATP
pIC50: −log10 of the molar value.
recorded metric: pIC50

Below: 5 compounds and their reported pIC50.
CS(=O)(=O)Cc1cc(F)cc(Nc2ncc(F)c(-c3ccc(F)c(F)c3F)n2)c1 ... 7.60
CC(C)(C)S(=O)(=O)Cc1cccc(Nc2ncc(F)c(-c3ccc(F)cc3F)n2)c1 ... 6.96
CS(=O)(=O)Cc1cccc(Nc2ncc(F)c(-c3ccc(F)cc3F)n2)c1 ... 7.29
CCCS(=O)(=O)Cc1cccc(Nc2ncc(F)c(-c3ccc(F)cc3F)n2)c1 ... 7.41
CC(C)S(=O)(=O)Cc1cccc(Nc2ncc(F)c(-c3ccc(F)cc3F)n2)c1 ... 7.30

I = CS(=O)(=O)Cc1cc(Nc2ncc(F)c(-c3ccc(F)cc3F)n2)cc(S(F)(F)(F)(F)F)c1
II = CCS(=O)(=O)Cc1cccc(Nc2ncc(F)c(-c3ccc(F)cc3F)n2)c1
III = COCCS(=O)(=O)Cc1cccc(Nc2ncc(F)c(-c3ccc(F)cc3F)n2)c1
IV = CS(=O)(=O)Cc1cc(F)cc(Nc2ncc(F)c(-c3cc(F)c(F)cc3F)n2)c1
### Prompt Given 4 compounds, produce a descending ranking by pIC50. Write out the labels following the order that was asked for.
### Response I, II, IV, III
(I: 7.85, II: 7.40, IV: 7.13, III: 6.89)

###

- system name: CDK2/CycE (Homo sapiens, UniProt P24941)
- Construct: GST
- test name: CDK2/CycE kinase assay (TR-FRET, Method 2)
- test context: Method 2, 10 μM ATP
recorded metric: IC50

# example entries with known answers
CS(=O)(=O)Cc1cc(F)cc(Nc2ncc(F)c(-c3cc(F)c(F)cc3F)n2)c1 ... > 20 µM
CCCS(=O)(=O)Cc1cc(F)cc(Nc2ncc(F)c(-c3cc(F)c(F)cc3F)n2)c1 ... > 20 µM

### Prompt Specify reported IC50 for the compound shown: "CS(=O)(=O)Cc1cc(Nc2ncc(F)c(-c3ccc(F)cc3F)n2)cc(C(F)(F)F)c1"
### Response > 20 µM
